System: 556581-035-R-J1-PDC complex spheroid viability
Assay: Anticancer human tumor 556581-035-R-J1-PDC patient-derived ovarian carcinoma cell line growth inhibition
Conditions: second compound 3.16 µM; first compound 0.03 µM; stronger effect = lower value
measurement-name: viability, T/C (%)
Numbers only; they are read as %.

Reference set (6 entries):
| compound | observed-value |
| --- | --- |
| COc1cc(C2c3cc4c(cc3C(OC3OC5COC(C)OC5C(O)C3O)C3COC(=O)C23)OCO4)cc(OC)c1O (configuration not stated) + NC1CCC(NC2CC2c2ccccc2)CC1 | 66.5 |
| O=C(C=Cc1cccc(S(=O)(=O)Nc2ccccc2)c1)NO + NC1CCC(NC2CC2c2ccccc2)CC1 | 73.1 |
| COc1cc(C2c3cc4c(cc3C(OC3OC5COC(C)OC5C(O)C3O)C3COC(=O)C23)OCO4)cc(OC)c1O (configuration not stated) + NC1CC1c1ccc(-c2cccc(O)c2)cc1 | 72 |
| Nc1ncn(C2CC(O)C(CO)S2)c(=O)n1 (configuration not stated) + NC1CCC(NC2CC2c2ccccc2)CC1 | 67.8 |
| CCN(c1cc(-c2ccc(CN3CCOCC3)cc2)cc(C(=O)NCc2c(C)cc(C)[nH]c2=O)c1C)C1CCOCC1 + NC1CCC(NC2CC2c2ccccc2)CC1 | 100 |
| CCc1c2c(nc3ccc(O)cc13)-c1cc3c(c(=O)n1C2)COC(=O)[C@]3(O)CC + NC1CCC(NC2CC2c2ccccc2)CC1 | 0.37 |

Notebook: pull reported viability, T/C for 556581-035-R-J1-PDC complex spheroid viability, entry CCc1c2c(nc3ccc(O)cc13)-c1cc3c(c(=O)n1C2)COC(=O)[C@]3(O)CC + NC1CC1c1ccc(-c2cccc(O)c2)cc1
0.26

====

viability, T/C values for the compounds below.
Tested on: 556581-035-R-J1-PDC complex spheroid viability
Assay: Anticancer human tumor 556581-035-R-J1-PDC cell line growth inhibition;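 note: spheroids exposed to agents for seven days; 100% = DMSO vehicle control wells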
Conditions: second compound 1 µM; first compound 1 µM; stronger effect = lower value
Number in %, nothing else.

| compound | units-symbol | viability, T/C |
| --- | --- | --- |
| CC1COCCN1c1cc(C2(S(C)(=N)=O)CC2)nc(-c2ccnc3[nH]ccc23)n1 (stereo unspecified) + NC1CC1c1ccc(-c2cccc(O)c2)cc1 | % | 77.4 |
| CC1(C)CCC(CN2CCN(c3ccc(C(=O)NS(=O)(=O)c4ccc(NCC5CCOCC5)c([N+](=O)[O-])c4)c(Oc4cnc5[nH]ccc5c4)c3)CC2)=C(c2ccc(Cl)cc2)C1 + NC1CCC(NC2CC2c2ccccc2)CC1 | % | 70.8 |
| O=C(C=Cn1cnc(-c2cc(C(F)(F)F)cc(C(F)(F)F)c2)n1)NNc1cnccn1 + NC1CCC(NC2CC2c2ccccc2)CC1 | % | 20.1 |
| Nc1ncn(C2CC(O)C(CO)O2)c(=O)n1 (stereo unspecified) + NC1CCC(NC2CC2c2ccccc2)CC1 | % | 76.8 |
| COc1cc(Nc2ncc3c(n2)-c2ccc(Cl)cc2C(c2c(F)cccc2OC)=NC3)ccc1C(=O)O + NC1CC1c1ccc(-c2cccc(O)c2)cc1 | % | 37.9 |

Please state recorded viability, T/C (tested on 556581-035-R-J1-PDC complex spheroid viability) of CC1COCCN1c1cc(C2(S(C)(=N)=O)CC2)nc(-c2ccnc3[nH]ccc23)n1 (stereo unspecified) + NC1CCC(NC2CC2c2ccccc2)CC1
65.3

====

Tested on: 556581-035-R-J1-PDC complex spheroid viability
Test: Anticancer human tumor 556581-035-R-J1-PDC cell line growth inhibition; active means viability on the fitted dose curve at most 10% of control; inactive means the rest;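 note: spheroids exposed to agents for seven days; 100% = DMSO vehicle control wells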
Conditions: second compound 3.16 µM; first compound 0.1 µM
// classify into Yes = active, No = inactive

Each molecule tested received a call. Report the one for CC(C)CC(NC(=O)C(Cc1ccccc1)NC(=O)c1cnccn1)B(O)O (centres undefined) + NC1CC1c1ccc(-c2cccc(O)c2)cc1 .
Yes

What about this molecule? CC[C@@]1(O)C(=O)OCc2c1cc1n(c2=O)Cc2cc3c(CN(C)C)c(O)ccc3nc2-1 + NC1CC1c1ccc(-c2cccc(O)c2)cc1
Yes

====

Test system: 556581-035-R-J1-PDC complex spheroid viability
Assay: Anticancer human tumor 556581-035-R-J1-PDC cell line growth inhibition;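 note: spheroids exposed to agents for seven days; 100% = DMSO vehicle control wells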
Conditions: second compound 0.316 µM; first compound 10 µM; stronger effect = lower value
Quick list: viability, T/C per entry.

Please review the following examples before continuing.
| compound | measurement-name | observed-value |
| --- | --- | --- |
| CC(C)c1c(-c2ccccc2)nc2c(C#N)c[nH]n2c1=O + NC1CCC(NC2CC2c2ccccc2)CC1 | viability, T/C | 54.4% |
| O=C(c1cc(Cc2n[nH]c(=O)c3ccccc23)ccc1F)N1CCN(C(=O)C2CC2)CC1 + NC1CCC(NC2CC2c2ccccc2)CC1 | viability, T/C | 65.8% |
| COc1ccc([C@@H](O)c2cc(-c3ncnc4cc(N5CCOCC5)ccc34)c(F)cc2Cl)nn1 + NC1CCC(NC2CC2c2ccccc2)CC1 | viability, T/C | 28.8% |

With those in mind, consider the next compound.
Fill in the blank: the reported viability, T/C of CC1(C)CCC(CN2CCN(c3ccc(C(=O)NS(=O)(=O)c4ccc(NCC5CCOCC5)c([N+](=O)[O-])c4)c(Oc4cnc5[nH]ccc5c4)c3)CC2)=C(c2ccc(Cl)cc2)C1 + NC1CCC(NC2CC2c2ccccc2)CC1 is ____.
7.68%

====

System: 556581-035-R-J1-PDC complex spheroid viability
Assay: Anticancer human tumor 556581-035-R-J1-PDC cell line growth inhibition;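 note: spheroids exposed to agents for seven days; 100% = DMSO vehicle control wells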
Conditions: second compound 1 µM; first compound 0.01 µM; stronger effect = lower value
measurement-name: viability, T/C (%)
Form entry: value (%) — number only.

Tell me reported viability, T/C for CC(C)CC(NC(=O)CNC(=O)c1cc(Cl)ccc1Cl)B1OC(=O)CC(CC(=O)O)(C(=O)O)O1 (stereo not given) + NC1CC1c1ccc(-c2cccc(O)c2)cc1 , tested with 556581-035-R-J1-PDC complex spheroid viability.
0.78

Also check Nc1ncn(C2CC(O)C(CO)O2)c(=O)n1 (stereo not given) + NC1CC1c1ccc(-c2cccc(O)c2)cc1
85.3

====

Tested on: 556581-035-R-J1-PDC complex spheroid viability
Assay: Anticancer human tumor 556581-035-R-J1-PDC cell line growth inhibition;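 note: spheroids exposed to agents for seven days; 100% = DMSO vehicle control wells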
Conditions: second compound 0.316 µM; first compound 0.0949 µM; stronger effect = lower value
viability, T/C less than 50% is 1; viability, T/C greater than or equal to 50% is 0.

| molecule | class |
| --- | --- |
| NS(=O)(=O)OCC1CC(n2ccc3c(NC4CCc5ccccc54)ncnc32)CC1O (stereo unspecified) + NC1CCC(NC2CC2c2ccccc2)CC1 | 0 |
| Nc1ccn(C2OC(CO)C(O)C2(F)F)c(=O)n1 (stereo unspecified) + NC1CC1c1ccc(-c2cccc(O)c2)cc1 | 1 |
| Nc1ccccc1NC(=O)c1ccc(CNC(=O)OCc2cccnc2)cc1 + NC1CC1c1ccc(-c2cccc(O)c2)cc1 | 0 |
| Nc1ncn(C2CC(O)C(CO)S2)c(=O)n1 (stereo unspecified) + NC1CC1c1ccc(-c2cccc(O)c2)cc1 | 1 |
| Nc1ccn(C2OC(CO)C(O)C2(F)F)c(=O)n1 (stereo unspecified) + NC1CCC(NC2CC2c2ccccc2)CC1 | 1 |
| CCN(c1cc(-c2ccc(CN3CCOCC3)cc2)cc(C(=O)NCc2c(C)cc(C)[nH]c2=O)c1C)C1CCOCC1 + NC1CC1c1ccc(-c2cccc(O)c2)cc1 | 0 |
| CCc1c2c(nc3ccc(O)cc13)-c1cc3c(c(=O)n1C2)COC(=O)[C@]3(O)CC + NC1CC1c1ccc(-c2cccc(O)c2)cc1 | 1 |
| Nc1ccccc1NC(=O)c1ccc(CNC(=O)OCc2cccnc2)cc1 + NC1CCC(NC2CC2c2ccccc2)CC1 | 0 |
| NS(=O)(=O)OCC1CC(n2ccc3c(NC4CCc5ccccc54)ncnc32)CC1O (stereo unspecified) + NC1CC1c1ccc(-c2cccc(O)c2)cc1 | 0 |
| O=C(C=Cc1cccc(S(=O)(=O)Nc2ccccc2)c1)NO + NC1CCC(NC2CC2c2ccccc2)CC1 | 1 |

Is 50% strictly greater than the molecule's reported viability, T/C? molecule: COc1cc(C2c3cc4c(cc3C(OC3OC5COC(C)OC5C(O)C3O)C3COC(=O)C23)OCO4)cc(OC)c1O (stereo unspecified) + NC1CC1c1ccc(-c2cccc(O)c2)cc1
0

Also, CCc1c2c(nc3ccc(O)cc13)-c1cc3c(c(=O)n1C2)COC(=O)[C@]3(O)CC + NC1CCC(NC2CC2c2ccccc2)CC1 please.
1

Same read-out for CCN(c1cc(-c2ccc(CN3CCOCC3)cc2)cc(C(=O)NCc2c(C)cc(C)[nH]c2=O)c1C)C1CCOCC1 + NC1CCC(NC2CC2c2ccccc2)CC1 ?
0

Also, O=C(C=Cc1cccc(S(=O)(=O)Nc2ccccc2)c1)NO + NC1CC1c1ccc(-c2cccc(O)c2)cc1 please.
1

Item: COc1cc(C2c3cc4c(cc3C(OC3OC5COC(C)OC5C(O)C3O)C3COC(=O)C23)OCO4)cc(OC)c1O (stereo unspecified) + NC1CCC(NC2CC2c2ccccc2)CC1
0
